# assayed.system: Histone deacetylase 4 (Homo sapiens, UniProt P56524)
# Sequence (P56524 whole entry): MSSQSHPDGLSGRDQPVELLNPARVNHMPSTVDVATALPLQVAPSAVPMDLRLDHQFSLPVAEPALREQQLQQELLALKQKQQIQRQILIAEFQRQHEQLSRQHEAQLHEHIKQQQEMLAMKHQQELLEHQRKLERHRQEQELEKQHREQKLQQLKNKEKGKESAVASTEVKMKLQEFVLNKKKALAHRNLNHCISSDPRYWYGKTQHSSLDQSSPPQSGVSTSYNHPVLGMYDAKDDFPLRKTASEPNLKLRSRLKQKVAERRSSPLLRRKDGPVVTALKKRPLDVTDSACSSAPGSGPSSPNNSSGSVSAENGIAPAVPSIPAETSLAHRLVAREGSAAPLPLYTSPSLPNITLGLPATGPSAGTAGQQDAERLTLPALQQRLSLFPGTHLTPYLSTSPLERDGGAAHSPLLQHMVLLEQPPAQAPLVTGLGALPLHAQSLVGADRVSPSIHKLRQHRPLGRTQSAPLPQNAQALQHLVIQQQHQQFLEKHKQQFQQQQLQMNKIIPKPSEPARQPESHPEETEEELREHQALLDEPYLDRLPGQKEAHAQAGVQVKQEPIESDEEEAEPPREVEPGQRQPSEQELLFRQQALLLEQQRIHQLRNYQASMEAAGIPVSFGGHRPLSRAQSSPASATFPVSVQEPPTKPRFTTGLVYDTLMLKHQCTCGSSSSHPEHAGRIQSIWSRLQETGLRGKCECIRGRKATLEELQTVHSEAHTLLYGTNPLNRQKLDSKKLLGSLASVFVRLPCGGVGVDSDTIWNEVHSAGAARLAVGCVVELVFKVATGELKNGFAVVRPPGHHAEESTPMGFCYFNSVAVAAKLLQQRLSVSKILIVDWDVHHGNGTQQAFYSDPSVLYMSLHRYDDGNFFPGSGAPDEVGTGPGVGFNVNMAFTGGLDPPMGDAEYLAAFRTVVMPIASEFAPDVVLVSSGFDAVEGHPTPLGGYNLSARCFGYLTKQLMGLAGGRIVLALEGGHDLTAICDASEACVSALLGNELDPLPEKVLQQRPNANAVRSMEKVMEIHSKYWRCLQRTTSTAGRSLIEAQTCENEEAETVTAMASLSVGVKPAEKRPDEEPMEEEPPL
# protocol.summary: Inhibition of recombinant human N-terminal GST-tagged HDAC4 (627 to end residues) expressed in baculovirus infected Sf9 insect cells using AcLeu-Gly-Lys(Tfa)-AMC as substrate measured after 30 mins by fluorescence assay
pIC50: −log10 of the molar value.
Catalogue of pIC50 readings, one per entry.

COc1cc(OC)c2c(N3CCN(C)CC3)nc(-c3cc(C)c(OCCCCCC(=O)NO)c(C)c3)nc2c1; < 6.00

Next, consider the following compound.
Q: I'd like to know its pIC50. The compound in question is COc1cc(OC)c2c(N3CCS(=O)(=O)CC3)nc(-c3cc(C)c(OCCCCCC(=O)NO)c(C)c3)nc2c1
Ans: < 6.00

* * *

# assayed.system: Histone deacetylase 7 (Homo sapiens)
# Sequence (Q8WUI4 whole entry): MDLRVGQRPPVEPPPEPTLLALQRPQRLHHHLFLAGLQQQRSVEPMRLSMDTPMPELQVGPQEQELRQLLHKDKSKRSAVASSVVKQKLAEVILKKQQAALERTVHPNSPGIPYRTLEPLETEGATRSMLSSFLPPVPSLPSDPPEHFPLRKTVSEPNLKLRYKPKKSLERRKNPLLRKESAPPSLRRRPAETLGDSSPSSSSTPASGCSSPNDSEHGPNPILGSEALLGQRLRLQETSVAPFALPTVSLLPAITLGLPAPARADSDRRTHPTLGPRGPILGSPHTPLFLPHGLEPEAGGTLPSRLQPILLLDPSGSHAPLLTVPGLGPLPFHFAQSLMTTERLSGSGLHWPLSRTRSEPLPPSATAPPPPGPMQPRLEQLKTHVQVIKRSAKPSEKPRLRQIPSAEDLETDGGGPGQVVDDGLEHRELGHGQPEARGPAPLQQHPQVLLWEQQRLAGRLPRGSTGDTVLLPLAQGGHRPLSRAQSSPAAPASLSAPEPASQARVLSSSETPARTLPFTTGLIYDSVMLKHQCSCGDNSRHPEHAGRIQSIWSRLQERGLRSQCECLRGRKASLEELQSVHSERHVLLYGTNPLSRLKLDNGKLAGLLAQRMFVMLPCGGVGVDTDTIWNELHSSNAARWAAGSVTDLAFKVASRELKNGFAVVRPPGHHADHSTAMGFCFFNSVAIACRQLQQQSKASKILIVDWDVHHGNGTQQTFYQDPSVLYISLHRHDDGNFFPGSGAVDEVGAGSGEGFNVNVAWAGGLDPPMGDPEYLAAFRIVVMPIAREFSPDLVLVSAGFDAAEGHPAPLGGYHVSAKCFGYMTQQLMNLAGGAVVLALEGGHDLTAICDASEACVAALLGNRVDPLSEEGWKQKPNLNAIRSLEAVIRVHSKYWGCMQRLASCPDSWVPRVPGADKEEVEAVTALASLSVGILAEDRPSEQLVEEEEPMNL
readout.type: IC50

Q: I'd like to know its IC50. The compound in question is COc1cc(OC)c2c(N3CCN(C)CC3)nc(-c3cc(C)c(OCCCCCC(=O)NO)c(C)c3)nc2c1
Ans: > 1000 nM

* * *

# assayed.system: Histone deacetylase 3/NCoR1 (Homo sapiens)
# Sequence (O15379 whole entry, the tested form may be a part): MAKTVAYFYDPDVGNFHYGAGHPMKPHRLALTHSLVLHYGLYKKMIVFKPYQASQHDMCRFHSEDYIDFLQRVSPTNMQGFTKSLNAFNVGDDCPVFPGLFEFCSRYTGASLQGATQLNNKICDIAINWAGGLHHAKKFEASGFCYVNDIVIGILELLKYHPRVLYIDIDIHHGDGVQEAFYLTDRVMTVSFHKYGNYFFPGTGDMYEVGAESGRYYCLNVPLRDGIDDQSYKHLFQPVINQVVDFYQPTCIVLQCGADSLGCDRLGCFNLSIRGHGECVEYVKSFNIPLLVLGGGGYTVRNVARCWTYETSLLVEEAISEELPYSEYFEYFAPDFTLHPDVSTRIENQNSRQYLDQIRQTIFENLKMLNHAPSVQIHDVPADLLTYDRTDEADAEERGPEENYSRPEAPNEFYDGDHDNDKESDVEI
# Sequence (O75376 whole entry, further chain, the tested form may be a part): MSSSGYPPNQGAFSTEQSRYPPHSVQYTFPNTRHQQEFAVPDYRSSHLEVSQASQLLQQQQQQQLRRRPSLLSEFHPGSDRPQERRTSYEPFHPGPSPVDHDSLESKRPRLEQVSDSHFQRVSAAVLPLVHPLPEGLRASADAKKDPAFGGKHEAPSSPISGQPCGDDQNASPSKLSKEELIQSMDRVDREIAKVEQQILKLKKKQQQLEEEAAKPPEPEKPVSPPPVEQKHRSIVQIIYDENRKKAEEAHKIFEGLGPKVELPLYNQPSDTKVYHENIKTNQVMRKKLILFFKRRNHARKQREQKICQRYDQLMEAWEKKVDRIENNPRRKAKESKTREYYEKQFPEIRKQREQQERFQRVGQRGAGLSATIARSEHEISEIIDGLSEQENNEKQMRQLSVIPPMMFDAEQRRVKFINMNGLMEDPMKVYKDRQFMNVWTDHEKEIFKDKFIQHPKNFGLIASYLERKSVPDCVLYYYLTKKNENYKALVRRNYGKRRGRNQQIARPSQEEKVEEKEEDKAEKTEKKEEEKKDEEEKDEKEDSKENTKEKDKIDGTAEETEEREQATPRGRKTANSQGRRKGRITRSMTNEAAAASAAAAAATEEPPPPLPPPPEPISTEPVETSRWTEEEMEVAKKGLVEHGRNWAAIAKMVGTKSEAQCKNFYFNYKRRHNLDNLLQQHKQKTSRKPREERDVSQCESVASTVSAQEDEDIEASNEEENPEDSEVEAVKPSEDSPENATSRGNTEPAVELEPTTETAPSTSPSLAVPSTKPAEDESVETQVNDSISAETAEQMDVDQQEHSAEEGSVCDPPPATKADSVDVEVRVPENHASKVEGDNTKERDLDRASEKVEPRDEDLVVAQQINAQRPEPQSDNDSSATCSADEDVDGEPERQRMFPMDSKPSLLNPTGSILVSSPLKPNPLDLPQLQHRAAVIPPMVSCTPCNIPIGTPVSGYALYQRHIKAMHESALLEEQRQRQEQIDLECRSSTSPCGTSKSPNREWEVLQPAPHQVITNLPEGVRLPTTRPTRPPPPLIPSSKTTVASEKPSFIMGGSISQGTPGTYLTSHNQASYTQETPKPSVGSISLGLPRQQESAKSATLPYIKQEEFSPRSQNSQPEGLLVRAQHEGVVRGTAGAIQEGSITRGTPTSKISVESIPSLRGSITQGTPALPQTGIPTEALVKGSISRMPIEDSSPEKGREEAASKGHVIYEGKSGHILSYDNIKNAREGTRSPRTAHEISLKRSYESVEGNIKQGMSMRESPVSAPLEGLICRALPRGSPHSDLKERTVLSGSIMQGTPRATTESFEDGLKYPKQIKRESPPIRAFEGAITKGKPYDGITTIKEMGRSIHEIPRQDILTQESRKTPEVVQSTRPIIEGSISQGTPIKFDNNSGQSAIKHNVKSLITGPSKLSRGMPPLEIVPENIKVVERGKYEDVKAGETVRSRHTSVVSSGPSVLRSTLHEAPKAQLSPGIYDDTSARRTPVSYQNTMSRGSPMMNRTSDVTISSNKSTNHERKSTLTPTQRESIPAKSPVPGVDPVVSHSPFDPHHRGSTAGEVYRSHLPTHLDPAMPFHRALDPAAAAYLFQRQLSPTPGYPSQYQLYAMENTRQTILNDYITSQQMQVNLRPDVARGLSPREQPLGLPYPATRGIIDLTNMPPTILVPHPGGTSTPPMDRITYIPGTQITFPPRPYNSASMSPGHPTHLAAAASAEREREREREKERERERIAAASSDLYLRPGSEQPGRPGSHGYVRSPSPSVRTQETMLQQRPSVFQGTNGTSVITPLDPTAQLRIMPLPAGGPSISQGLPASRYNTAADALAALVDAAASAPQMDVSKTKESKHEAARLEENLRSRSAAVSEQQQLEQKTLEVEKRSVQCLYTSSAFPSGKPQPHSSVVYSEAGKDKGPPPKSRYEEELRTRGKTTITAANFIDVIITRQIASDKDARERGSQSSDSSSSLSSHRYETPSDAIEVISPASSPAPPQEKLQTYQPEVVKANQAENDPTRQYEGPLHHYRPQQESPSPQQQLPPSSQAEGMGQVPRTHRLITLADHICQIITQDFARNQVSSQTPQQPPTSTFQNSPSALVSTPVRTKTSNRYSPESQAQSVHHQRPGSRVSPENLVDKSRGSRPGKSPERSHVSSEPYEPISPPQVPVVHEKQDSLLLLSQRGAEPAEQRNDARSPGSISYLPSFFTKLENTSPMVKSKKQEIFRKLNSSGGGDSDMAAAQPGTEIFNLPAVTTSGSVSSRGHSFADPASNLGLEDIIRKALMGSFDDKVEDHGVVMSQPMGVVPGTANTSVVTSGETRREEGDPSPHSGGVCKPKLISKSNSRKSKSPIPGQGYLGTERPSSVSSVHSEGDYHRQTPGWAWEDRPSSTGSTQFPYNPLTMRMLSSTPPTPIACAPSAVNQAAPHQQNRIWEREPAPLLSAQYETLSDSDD
# protocol.summary: Inhibition of recombinant human GST-fused HDAC3/NCOR1 (397 to 503 residues) expressed in baculovirus infected insect cells using Ac-Leu-Gly-Lys(Ac)-AMC as substrate measured after 30 mins by fluorescence assay
readout.type: IC50 (nM)

COc1cc(OC)c2c(N3CCS(=O)(=O)CC3)nc(-c3cc(C)c(OCCCCCC(=O)NO)c(C)c3)nc2c1; 106
COc1cc(OC)c2c(N3CCN(C)CC3)nc(-c3cc(C)c(OCCCCCC(=O)NO)c(C)c3)nc2c1; 79.2
